These data points were gathered from the supplement of paper PMC10567573.

# assay_comment: protein stability index of a GFP-peptide fusion (GPS, HEK-293T) (PSI 1-6); higher = more stable;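 further: 24-mer peptide tiles fused after GFP, lentivirally expressed, FACS-sorted into six equal bins by GFP/DsRed ratio, decoded by Illumina sequencing, PSI is the read-weighted mean bin number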
# test_conditions: treatment: MLN4924 1 uM, 8 h; c terminus: a fixed tail appended
Measured protein stability index accompanies every entry in the list below.

- record_sequence: "VPSESEPPALQNNLLSPLLTGTES [NFE2L1]"
  protein stability index: 5.07
- record_sequence: "IIKMATARQETKEMARKVIEHCSN [ZER1]"
  protein stability index: 3.08
- record_sequence: "RMAIGYLHSHRHLYPEGIGARQQQ [POMT2]"
  protein stability index: 3.08

###

Measured protein stability index accompanies every entry in the list below.
# assay_comment: protein stability index of a GFP-peptide fusion (GPS, HEK-293T) (PSI 1-6); higher = more stable
# test_conditions: treatment: DMSO; c terminus: a fixed tail appended
quantity_name: protein stability index

- record_sequence: "YGLRGPHKADSIQGTARTLSPVLE [TNXB]"
  quantity_name: "protein stability index"
  meas_value: 3.93
- record_sequence: "TACAVIILTIICYLGLPRLEFYRY [SLC29A1]"
  quantity_name: "protein stability index"
  meas_value: 3.04
- record_sequence: "ASHNGISYKDLDVIFGVELPGNEE [TENT5D]"
  quantity_name: "protein stability index"
  meas_value: 4.03
- record_sequence: "CCINSHCGWPRGKDAPCYESDTDI [DRICH1]"
  quantity_name: "protein stability index"
  meas_value: 2.94
- record_sequence: "LQELKKLKNSNYESIQQTARSIAE [PPTC7]"
  quantity_name: "protein stability index"
  meas_value: 3.9
- record_sequence: "LASHHNHFSQIVIFMLCTLVLAIP [OR10K2]"
  quantity_name: "protein stability index"
  meas_value: 3.06
- record_sequence: "LWQFLLELLTDKSCQSFISWTGDG [ETS1]"
  quantity_name: "protein stability index"
  meas_value: 2.96

###

Measured protein stability index accompanies every entry in the list below.
# assay_comment: protein stability index of a GFP-peptide fusion (GPS, HEK-293T) (PSI 1-6); higher = more stable
# test_conditions: treatment: DMSO; c terminus: a fixed tail appended

- record_sequence: "CSSCQRSWASAQVQILCHTYWEHW [RTP4]"
  protein stability index: 2.3
- record_sequence: "KTIKSFFPHSGKDCLLCFPETLPE [C8orf76]"
  protein stability index: 2.92
- record_sequence: "EGKSRHVDFQCVKSKSITNLAAAA [BTBD10]"
  protein stability index: 3.48
- record_sequence: "HQRFLREGRFWKSKNEDRGEEEAE [ZMYND11]"
  protein stability index: 4.94
- record_sequence: "EKRGFTSHFVFVIEVKTKGGSKYL [NCF4]"
  protein stability index: 3.02

###

# assay_comment: protein stability index of a GFP-peptide fusion (GPS, HEK-293T) (PSI 1-6); higher = more stable
# test_conditions: treatment: MLN4924 1 uM, 8 h; c terminus: a fixed tail appended
Measured protein stability index accompanies every entry in the list below.

- record_sequence: "RARIAKGLRLCRPKAKAKAKAKAK [RPL29]"
  protein stability index: 4
- record_sequence: "CEVIFCVFIFYYVVEEILELHIHR [PKD2L1]"
  protein stability index: 3.07
- record_sequence: "YIKVDWQRVEKDMKKAKEQLKIRK [FUNDC2]"
  protein stability index: 2.94
